Reported IC50 at 24 h values follow for various compounds
# experimental_details: CellTiter-Glo cytotoxicity in THP-1Blue cells
# Format: cell-based, human
# test_context: human, THP-1Blue cells; 24-h incubation, up to 50 μM; read-out: THP-1Blue Cell Cytotoxicity IC50

Please review the entries below; each comes with its answer.
Prompt: Which IC50 at 24 h is reported for this compound? COC(=O)c1ccc2nc3c(nc2c1)C(=NO)c1ccccc1-3
Response: 26.1 µM

Prompt: Recorded IC50 at 24 h of ON=C1c2ccccc2-c2nc3c(Br)cc(C(F)(F)F)cc3nc21 , please.
Response: > 50 µM

Prompt: // returns reported IC50 at 24 h for input O/N=C1/c2ccccc2-c2nc3c(Cl)cc(C(F)(F)F)cc3nc21
Response: > 50 µM

Prompt: Look up IC50 at 24 h: CC(C)(C)c1ccc2nc3c(nc2c1)-c1ccccc1/C3=N/O
Response: > 50 µM

Prompt: Using the record for Cc1cc(Br)cc2nc3c(nc12)-c1ccccc1C3=NO , report its IC50 at 24 h.
Response: 37.5 µM

Prompt: Consider the compound ON=C1c2ccccc2-c2nc3cc(F)c(Cl)cc3nc21 and give its measured IC50 at 24 h.
Response: > 50 µM

Prompt: // query IC50 at 24 h value for entry ON=C1c2ccccc2-c2nc3c(CN4CCOCC4)cccc3nc21
Response: > 50 µM

Prompt: Entry ON=C1c2ccccc2-c2nc3c(F)cc(F)cc3nc21 : reported IC50 at 24 h = ?
Response: > 50 µM

Next item in the queue.
Prompt: Please report the recorded IC50 at 24 h for ON=C1c2ccccc2-c2nc3c(C(F)(F)F)cc(C(F)(F)F)cc3nc21 .
Response: 36.5 µM

====

Here, each record is paired with measured IC50 at 24 h data.
# experimental_details: CellTiter-Glo cytotoxicity in MonoMac-6 cells
# Type: cell-based, human
# test_context: human, MonoMac-6 cells; 24-h incubation, up to 50 μM; read-out: MonoMac-6 Cell Cytotoxicity IC50

Examples with their reported IC50 at 24 h follow.
Prompt: So what's the measured IC50 at 24 h for this one? ON=C1c2ccccc2-c2nc3c(C(F)(F)F)cc(C(F)(F)F)cc3nc21 [Compound 4j]
Response: > 50 µM

Prompt: Return reported IC50 at 24 h; argument: ON=C1c2ccccc2-c2nc3cc(F)c(Cl)cc3nc21 [Compound 4k]
Response: > 50 µM

More entries:
Prompt: Quick check: IC50 at 24 h of CC(C)(C)c1ccc2nc3c(nc2c1)-c1ccccc1/C3=N/O [Compound 4d] ?
Response: > 50 µM

====

In this section we review reported melting point values for a set of molecules.

Prompt: What does the data say about its melting point? Entry: COC(=O)c1ccc2nc3c(nc2c1)C(=NO)c1ccccc1-3 [Compound 4l]
Response: 300 to 301 °C

Prompt: Param item = O/N=C1/c2ccccc2-c2nc3c(Cl)cc(C(F)(F)F)cc3nc21 [Compound 4i] ; retrieve measured melting point.
Response: 324 to 325 °C

Prompt: What does the data say about its melting point? Entry: ON=C1c2ccccc2-c2nc3c(CN4CCOCC4)cccc3nc21 [Compound 4m]
Response: 210 to 211 °C

Prompt: What value of melting point has been reported for the following molecule? ON=C1c2ccccc2-c2nc3c(Cl)cccc3nc21 [Compound 4b]
Response: 270 to 271 °C

Prompt: Report melting point for ON=C1c2ccccc2-c2nc3c(F)c(F)ccc3nc21 [Compound 4g] please.
Response: 257 to 258 °C

Prompt: Look at this molecule and give its reported melting point. ON=C1c2ccccc2-c2nc3c(Br)cc(C(F)(F)F)cc3nc21 [Compound 4h]
Response: 236 to 237 °C

Prompt: Reported melting point, molecule CC(C)(C)c1ccc2nc3c(nc2c1)-c1ccccc1/C3=N/O [Compound 4d] : ____
Response: 197 to 198 °C

====

Reported pKd by item:
# measured_target: JNK3 (Homo sapiens, UniProt P53779)
# Construct: purchased Eurofins Pharma Discovery (KINOMEscan)
# Sequence (P53779 whole entry): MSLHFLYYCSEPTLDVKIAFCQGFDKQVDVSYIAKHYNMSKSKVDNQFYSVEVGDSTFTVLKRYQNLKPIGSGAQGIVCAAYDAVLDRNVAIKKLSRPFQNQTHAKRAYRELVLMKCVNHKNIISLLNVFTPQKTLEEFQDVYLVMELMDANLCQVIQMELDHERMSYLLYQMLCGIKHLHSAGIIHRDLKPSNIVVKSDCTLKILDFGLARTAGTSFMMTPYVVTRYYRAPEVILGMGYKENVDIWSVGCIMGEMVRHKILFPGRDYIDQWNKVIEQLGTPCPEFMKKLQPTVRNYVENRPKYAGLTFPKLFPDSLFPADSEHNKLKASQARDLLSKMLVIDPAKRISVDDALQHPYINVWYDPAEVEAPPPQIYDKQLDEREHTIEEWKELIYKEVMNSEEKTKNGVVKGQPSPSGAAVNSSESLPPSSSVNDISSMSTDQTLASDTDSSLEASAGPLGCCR
# experimental_details: KINOMEscan Kd determination, JNK3
# test_context: duplicate, mean, N.B. = no binding at < 30 μM
pKd: −log10 of the molar value.

Prompt: State its pKd on JNK3 (Homo sapiens, UniProt P53779): ON=C1c2ccccc2-c2nc3c(C(F)(F)F)cc(C(F)(F)F)cc3nc21
Response: < 4.52

Prompt: What measured pKd is associated with ON=C1c2ccccc2-c2nc3c(Br)cc(C(F)(F)F)cc3nc21 on JNK3 (Homo sapiens, UniProt P53779)?
Response: < 4.52

# context switch: different compound, same pKd
Prompt: Write down the reported pKd of Cc1cc(Br)cc2nc3c(nc12)-c1ccccc1C3=NO , test system: JNK3 (Homo sapiens, UniProt P53779).
Response: < 4.52
